Parameter: self-cleavage. Scope: all listed entries.
B1: CPEB3 Ribozyme (parent)
chain: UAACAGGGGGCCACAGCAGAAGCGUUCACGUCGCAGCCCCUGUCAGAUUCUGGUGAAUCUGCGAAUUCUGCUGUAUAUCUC

Variants of: B1
Assay: self-cleavage, relative activity (ratio to wild type); higher = more cleavage; in vitro, sequencing
Response field accepts a number only; no unit should be typed.

| change | self-cleavage |
| --- | --- |
| G7A U26C | 0.25 |
| A13C G63U | 0.97 |
| U1A U80C | 1.14 |
| U25A U72C | 0.22 |
| G9U C81U | 0.27 |

**Query** // lookup self-cleavage for G30A U31G
**Result** 0.21
